format: in vivo, human; details: Japanese, 180 mg OD, Day 1; geometric mean (CV%)

| Molecule Smiles | Units Text | Cmax |
| --- | --- | --- |
| Cc1cc(-c2ccc(C(=O)[C@@H]3CCCC[C@H]3C(=O)Nc3cnn4c3C(=O)NCC4)cc2)n[nH]1 | nM | 1280 |

###

format: in vivo, human; settings: Japanese, 600 mg OD, Day 10; geometric mean (CV%)

| Compound | Units Text | Cmax |
| --- | --- | --- |
| Cc1cc(-c2ccc(C(=O)[C@@H]3CCCC[C@H]3C(=O)Nc3cnn4c3C(=O)NCC4)cc2)n[nH]1 [AZD5718] | µM | 6.15 |

###

type: in vivo, human; details: Japanese, 600 mg OD, Day 1; geometric mean (CV%)

| Molecule Smiles | Cmax, µM |
| --- | --- |
| Cc1cc(-c2ccc(C(=O)[C@@H]3CCCC[C@H]3C(=O)Nc3cnn4c3C(=O)NCC4)cc2)n[nH]1 | 5.18 |

###

type: in vivo, human; settings: read-out: Cmax, Japanese geometric mean, body weight normalized to 70 kg, 60 mg, Day 10

| Compound | Cmax / nM |
| --- | --- |
| Cc1cc(-c2ccc(C(=O)[C@@H]3CCCC[C@H]3C(=O)Nc3cnn4c3C(=O)NCC4)cc2)n[nH]1 [AZD5718] | 147 |

###

type: in vivo, human; settings: Japanese, 360 mg OD, Day 1; geometric mean (CV%)
Reported Endpoint: Cmax (nM)

| Molecule Smiles | Reported Endpoint | Measured Value |
| --- | --- | --- |
| Cc1cc(-c2ccc(C(=O)[C@@H]3CCCC[C@H]3C(=O)Nc3cnn4c3C(=O)NCC4)cc2)n[nH]1 | Cmax | 2200 |

###

assay type: in vivo, human; details: Japanese, 60 mg OD, Day 10; geometric mean (CV%)

| Molecule Smiles | Cmax |
| --- | --- |
| Cc1cc(-c2ccc(C(=O)[C@@H]3CCCC[C@H]3C(=O)Nc3cnn4c3C(=O)NCC4)cc2)n[nH]1 | 159 nM |

###

assay type: in vivo, human; details: read-out: Cmax, Japanese geometric mean, body weight normalized to 70 kg, 600 mg, Day 10
Reported Endpoint: Cmax (µM)

| Molecule Smiles | Units Text | Measured Value |
| --- | --- | --- |
| Cc1cc(-c2ccc(C(=O)[C@@H]3CCCC[C@H]3C(=O)Nc3cnn4c3C(=O)NCC4)cc2)n[nH]1 | µM | 5.82 |

###

assay type: in vivo, human; settings: Japanese, 360 mg OD, Day 10; geometric mean (CV%)
Reported Endpoint: Cmax (µM)

| Molecule Smiles | Reported Endpoint | Units Text | Measured Value |
| --- | --- | --- | --- |
| Cc1cc(-c2ccc(C(=O)[C@@H]3CCCC[C@H]3C(=O)Nc3cnn4c3C(=O)NCC4)cc2)n[nH]1 | Cmax | µM | 3.46 |

# credit: paper PMC8481180
